Consider the following binders and their measured relative fluorescence (rf) readings.
molecular target: GvpF fused to NGFP or CGFP (split-GFP) (Halobacterium salinarum PHH1); assay: split reporter (BiFC, NanoBiT); split-GFP (mGFP2 split between residues 157 and 158) in Hfx. volcanii transformants in vivo; eight combinations of fusions a pair, highest relative fluorescence (rf) given; cells in basal salts (3 M NaCl, 150 mM MgSO4, 50 mM KCl) at OD600 1; rf > 5 clear interaction, rf < 1 no interaction
Sequence (P24370 whole entry, the tested form may be a part): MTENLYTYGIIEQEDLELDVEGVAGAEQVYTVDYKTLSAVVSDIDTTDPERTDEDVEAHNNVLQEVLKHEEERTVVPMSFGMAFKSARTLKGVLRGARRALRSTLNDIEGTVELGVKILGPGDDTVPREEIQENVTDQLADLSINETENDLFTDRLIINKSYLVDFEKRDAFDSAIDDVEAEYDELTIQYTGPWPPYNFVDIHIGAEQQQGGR

binder	relative fluorescence (rf)
GvpA D24A (split-GFP fusion) (natural protein) MAQPDSSGLAEVLDRVLDKGVVVAVWARVSLVGIEILTVEARVVAASVDTFLHYAEEIAKIEQAELTAGAEAAPEA	< 6 rf
GvpA E40A (split-GFP fusion) (natural protein) MAQPDSSGLAEVLDRVLDKGVVVDVWARVSLVGIEILTVAARVVAASVDTFLHYAEEIAKIEQAELTAGAEAAPEA	< 6 rf
GvpA R28A (split-GFP fusion) (natural protein) MAQPDSSGLAEVLDRVLDKGVVVDVWAAVSLVGIEILTVEARVVAASVDTFLHYAEEIAKIEQAELTAGAEAAPEA	< 6 rf
